target: Focal adhesion kinase 1 (Homo sapiens, UniProt Q05397); further: in the data inactive means no Kd found up to 30 µM
Sequence (Q05397 whole entry): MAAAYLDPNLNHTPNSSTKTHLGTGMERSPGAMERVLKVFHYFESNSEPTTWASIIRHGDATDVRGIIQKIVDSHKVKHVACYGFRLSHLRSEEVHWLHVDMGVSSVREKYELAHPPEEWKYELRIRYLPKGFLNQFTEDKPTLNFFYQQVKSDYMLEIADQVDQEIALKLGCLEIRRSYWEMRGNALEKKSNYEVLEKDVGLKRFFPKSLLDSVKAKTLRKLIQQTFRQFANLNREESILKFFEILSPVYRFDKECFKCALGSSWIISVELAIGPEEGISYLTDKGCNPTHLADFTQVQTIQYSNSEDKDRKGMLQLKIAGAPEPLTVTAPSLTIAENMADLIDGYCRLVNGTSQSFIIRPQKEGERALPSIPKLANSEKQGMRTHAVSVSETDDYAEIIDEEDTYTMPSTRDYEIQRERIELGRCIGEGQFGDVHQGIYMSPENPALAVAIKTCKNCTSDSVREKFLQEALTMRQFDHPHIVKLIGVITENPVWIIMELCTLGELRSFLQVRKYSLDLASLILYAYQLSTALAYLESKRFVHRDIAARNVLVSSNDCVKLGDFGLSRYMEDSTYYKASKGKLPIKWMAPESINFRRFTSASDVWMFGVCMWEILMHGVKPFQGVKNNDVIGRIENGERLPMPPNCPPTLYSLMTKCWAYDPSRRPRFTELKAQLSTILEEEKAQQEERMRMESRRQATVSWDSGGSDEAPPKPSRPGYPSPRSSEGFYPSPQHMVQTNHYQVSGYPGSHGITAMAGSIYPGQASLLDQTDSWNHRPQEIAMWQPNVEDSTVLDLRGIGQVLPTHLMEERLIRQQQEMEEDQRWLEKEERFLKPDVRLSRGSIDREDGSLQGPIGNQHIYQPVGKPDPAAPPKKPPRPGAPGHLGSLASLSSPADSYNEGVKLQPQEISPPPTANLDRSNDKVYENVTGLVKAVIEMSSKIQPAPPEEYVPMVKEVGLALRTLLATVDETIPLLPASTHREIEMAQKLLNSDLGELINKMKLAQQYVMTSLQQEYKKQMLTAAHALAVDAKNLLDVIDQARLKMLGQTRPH
Activity calls are given as the source filed them.
Please state which outcome applies, choosing from active, inactive

# count of solved cases: 8
{"molecule": "CC(=O)Nc1cccc(-n2c(=O)n(C3CC3)c(=O)c3c(Nc4ccc(I)cc4F)n(C)c(=O)c(C)c32)c1", "label value": "inactive"}
{"molecule": "O=c1sn(-c2cccc3ccccc23)c(=O)n1Cc1ccccc1", "label value": "inactive"}
{"molecule": "C1=C/COCc2cc(ccc2OCCN2CCCC2)Nc2nccc(n2)-c2cccc(c2)COC/1", "label value": "inactive"}
{"molecule": "COc1cc(N2CCC(N3CCN(C)CC3)CC2)ccc1Nc1ncnc(Nc2ccccc2S(=O)(=O)C(C)C)n1", "label value": "active"}
{"molecule": "CN1CCC(CNc2ccc3ncc(-c4cccc(OC(F)(F)F)c4)n3n2)CC1", "label value": "inactive"}
{"molecule": "Cc1nc(N)sc1-c1ccnc(Nc2ccc(N3CCOCC3)cc2)n1", "label value": "active"}
{"molecule": "CNC(=O)c1cc(Oc2ccc(NC(=O)Nc3ccc(Cl)c(C(F)(F)F)c3)c(F)c2)ccn1", "label value": "inactive"}
{"molecule": "CN1CCC(COc2cnc(-c3cccc(Cn4nc(-c5cccc(C#N)c5)ccc4=O)c3)nc2)CC1", "label value": "inactive"}

Hello, I am checking results. What call was entered for `CCS(=O)(=O)N1CC(CC#N)(n2cc(-c3ncnc4[nH]ccc34)cn2)C1` ? inactive

I would be grateful if you could indicate the recorded call for `Cc1c(F)cc(C(=O)NC2CC2)cc1-c1ccc(C(=O)NCC(C)(C)C)cn1` . inactive

Call for entry `Cn1ncc(Cl)c1-c1cc(C(=O)N[C@H](CN)Cc2cccc(F)c2)sc1Cl` : inactive
